Tested on: human umbilical vein endothelial cells (HUVEC)
Experiment: HUVEC proliferation assay (VEGF-stimulated, MTT);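 also: relative to VEGF-stimulated control minus starvation-medium baseline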
Type: cell-based
Applied conditions: Library II, Y=S; 0.5 mM (column head; text: nominal 0.5 nM); crude reaction mixtures
Overview of reported % inhibition of the proliferation of HUVEC across a group of compounds:
Please format your answer as a value with the unit trailing.

# example entries with known answers
1) NS(=O)(=O)c1ccc(CCNC(=O)c2ccccc2Sc2ccc3c(/C=C/c4ccccn4)n[nH]c3c2)cc1 = 26%
2) CN(C)CCCCCCNC(=O)c1ccccc1Sc1ccc2c(/C=C/c3ccccn3)n[nH]c2c1 = 42%
3) CCOCCCNC(=O)c1ccccc1Sc1ccc2c(/C=C/c3ccccn3)n[nH]c2c1 = 44%
4) O=C(NCCN1CCCCC1)c1ccccc1Sc1ccc2c(/C=C/c3ccccn3)n[nH]c2c1 = 5%
5) CC(C)C(CO)NC(=O)c1ccccc1Sc1ccc2c(/C=C/c3ccccn3)n[nH]c2c1 (stereo not drawn) = 21%
6) NC(=O)CCNC(=O)c1ccccc1Sc1ccc2c(/C=C/c3ccccn3)n[nH]c2c1 = 8%
7) CC(C)CC(C)NC(=O)c1ccccc1Sc1ccc2c(/C=C/c3ccccn3)n[nH]c2c1 (stereo not drawn) = 55%
8) CN(C)c1ccc(CNC(=O)c2ccccc2Sc2ccc3c(/C=C/c4ccccn4)n[nH]c3c2)cc1 = 32%

Please look at the following compound next.
[ask] Item O=C(NC1CCS(=O)(=O)C1)c1ccccc1Sc1ccc2c(/C=C/c3ccccn3)n[nH]c2c1 (stereo not drawn) has what recorded % inhibition of the proliferation of HUVEC?
[reply] 27%

----------
Experiment: Determination of inhibitor concentration in mouse plasma after intraperitoneal and oral dosing
Type: in vivo
Applied conditions: female, PO, 40 mg/kg, vehicle 0.5% CMC, read-out: Cmax
Metric name: Cmax (ng/mL)
Express your answer in ng/mL, writing the number without its unit.

[ask] Item `CCn1nc(C)cc1C(=O)Nc1cccc(C(=O)c2ccc3c(/C=C/c4ccccn4)n[nH]c3c2)c1.Cl` has what recorded Cmax?
[reply] 13800

----------
Experiment: Determination of inhibitor concentration in mouse plasma after intraperitoneal and oral dosing
Type: in vivo
Applied conditions: IP, 25 mg/kg, vehicle PEG400:H2O pH 2.3 30:70
Overview of reported plasma half-life (T1/2) across a group of molecules:
Express your answer in h, writing the number without its unit.

[ask] Item `O=C(Nc1cccc(Oc2ccc3c(/C=C/c4ccccn4)n[nH]c3c2)c1)c1ccccc1` has what recorded plasma half-life (T1/2)?
[reply] 2.4

----------
Experiment: Determination of inhibitor concentration in mouse plasma after intraperitoneal and oral dosing
Type: in vivo
Applied conditions: PO, 50 mg/kg, vehicle PEG400:H2O pH 2.3 60:40
Param threshold (2 h) applies to plasma half-life (T1/2); output Yes when value >= threshold, No when value < threshold.

Here's what some known entries look like.
1) O=C(Nc1cccc(C(=O)c2ccc3c(/C=N/n4cccc4)n[nH]c3c2)c1)c1ccccc1 = Yes
2) O=C(c1cccc(NC(=O)c2ccccn2)c1)c1ccc2c(/C=C/c3ccccc3)n[nH]c2c1 = Yes
3) O=C(c1cccc(NC(=O)c2ccccn2)c1)c1ccc2c(/C=C/c3ccccn3)n[nH]c2c1 = No
4) O=C(c1cccc(NC(=O)c2cccc3[nH]ccc23)c1)c1ccc2c(/C=C/c3ccccn3)n[nH]c2c1 = No
5) O=C(Nc1cccc(C(=O)c2ccc3c(/C=C/c4ccccc4)n[nH]c3c2)c1)c1ccncc1 = No

[ask] Given `O=C(Nc1cccc(Cl)c1)c1ccccc1Sc1ccc2c(/C=C/c3ccccn3)n[nH]c2c1` , state whether its plasma half-life (T1/2) is at least 2 h.
[reply] No

[ask] Same thing, different compound: CC(=O)c1ccc(C(=O)Nc2cccc(C(=O)c3ccc4c(/C=C/c5ccccn5)n[nH]c4c3)c2)s1 [Example 41(e)]
[reply] No

[ask] Same thing, different compound: `Cc1ccc2cc(NC(=O)c3ccccc3Sc3ccc4c(/C=C/c5ccccn5)n[nH]c4c3)ccc2n1`
[reply] Yes
